Reported Growth Rate values for the following molecules.
Test system: U2OS
Assay: Incucyte cell viability with U2OS; further: filed as whole numbers so only -1 and 0 and 1 occur
Type: toxicity, cell-based
Conditions: human, 12 h, 10 µM, compound concentration 10 uM, replicate number 2, timepoint 12 hours
Measured parameter: Growth Rate

molecule="Cc1ccc2[nH]c(CNCCCc3ccncc3)cc(=O)c2c1 [UCSF924NC]" measurement=1
molecule="C[C@H](NC(=O)Nc1cc2[nH]ncc2c(CO)n1)c1ccccn1 [ERKi-NC]" measurement=1
molecule=Cc1ccc(NC(=O)Nc2cc(C(F)(F)F)ccc2F)cc1Nc1ccc2c(c1)NC(=O)/C2=C\c1ccc[nH]1 measurement=1
molecule=COc1cc(C#N)ccc1S(=O)(=O)Nc1ccc2c(c1)cc(C)c(=O)n2C measurement=1
molecule=N#Cc1cccc(C(=O)Nc2cc(-c3ccccc3)nn2-c2ccccc2)c1 measurement=1
molecule="c1cc(CN2CCCNCCNCCCNCC2)ccc1CN1CCCNCCNCCCNCC1 [PLERIXAFOR]" measurement=0
molecule=c1ccc(-c2oc3ncnc(NC[C@@H]4CCCO4)c3c2-c2ccccc2)cc1 measurement=1
molecule="CC[C@@H]1CN(C(=O)NCC(F)(F)F)C[C@@H]1c1cnc2cnc3[nH]ccc3n12 [UPADACITINIB]" measurement=1
molecule=Cc1c(Nc2ccc(S(=O)(=O)N3CCN(C)CC3)cc2F)nc2ccc(Nc3cnn(C4CC4)c3)cn2c1=O measurement=1
molecule="O=C(O)[C@H]1[C@H](Cn2nnc3ccccc3c2=O)CC[C@@H]1C(=O)c1ccc(OCCC2CCOCC2)cc1 [BAY-7598]" measurement=0

---

Tested on: U2OS
Assay: Multiplex assay against U2OS
Format: toxicity, cell-based
Conditions: human, 12 h, 1 µM, compound concentration 1 uM, replicate 2
Kindly apply the following: 1 if Population Normal (%) is less than 90%, -1 in every other case.

compound=Cc1ccc(S(=O)(=O)NC2c3ccccc3Oc3ccccc32)cc1 assigned_label=-1
compound=Cl.NC[C@@H]1O[C@H](C23CC4CC(CC(C4)C2)C3)Cc2c1ccc(O)c2O assigned_label=-1
compound=CCCCN(CC)c1nc(C)nc2c1c(C)cn2-c1c(C)cc(C)cc1C.Cl assigned_label=-1
compound=N#Cc1cccc(C(=O)Nc2cc(-c3ccccc3)nn2-c2ccccc2)c1 assigned_label=-1
compound="CC(Cc1ccc(O)c(O)c1)C(C)Cc1ccc(O)c(O)c1 (centres undefined) [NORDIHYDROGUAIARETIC ACID]" assigned_label=1
compound=Cc1ccc(NC(=O)Nc2cc(C(F)(F)F)ccc2F)cc1Nc1ccc2c(c1)NC(=O)/C2=C\c1ccc[nH]1 assigned_label=1
compound=Cc1c(P(=S)(c2ccccc2)c2ccccc2)n2ccccc2[n+]1C/C=C/c1ccccc1.[Br-] assigned_label=1

---

Tested on: Fibroblast
Test: Multiplex assay against human fibroblast
Assay type: toxicity, cell-based
Conditions: 24 h, 10 µM, compound concentration 10 uM, replicate 1
I'd appreciate it if you could label each record using Population Fragmented Nuclei (%) and these ranges: bin 1: < 20%; bin 2: ≥ 20% and < 30%; bin 3: ≥ 30%

structure=Cc1c(Nc2ccc(S(=O)(=O)N3CCN(C)CC3)cc2F)nc2ccc(Nc3cnn(C4CC4)c3)cn2c1=O assigned_label="bin 2"
structure=CC(C)c1cc(Nc2nc(N3CCC[C@H](N)C3)ncc2C(N)=O)cc(C(C)C)n1 assigned_label="bin 2"
structure=Cc1ccc(NC(=O)Nc2cc(C(F)(F)F)ccc2F)cc1Nc1ccc2c(c1)NC(=O)/C2=C\c1ccc[nH]1 assigned_label="bin 1"
structure=CC(/C=C1\SC(=S)N(CCCC(=O)Nc2ccc(C(=O)O)c(O)c2)C1=O)=C\c1ccccc1 assigned_label="bin 3"
structure=Cl.NC[C@@H]1O[C@H](C23CC4CC(CC(C4)C2)C3)Cc2c1ccc(O)c2O assigned_label="bin 1"
structure=CC[C@@]1(O)C(=O)OCc2c1cc1n(c2=O)Cc2cc3ccccc3nc2-1 assigned_label="bin 3"
structure=CC[C@@H]1C(=O)N(C)c2cnc(Nc3ccc(C(=O)NC4CCN(C)CC4)cc3OC)nc2N1C1CCCC1 assigned_label="bin 3"
structure=Cc1c(P(=S)(c2ccccc2)c2ccccc2)n2ccccc2[n+]1C/C=C/c1ccccc1.[Br-] assigned_label="bin 1"
structure=Oc1cccc(-c2nc(N3CCOCC3)c3oc4ncccc4c3n2)c1 assigned_label="bin 3"
structure=N#CCNC(=O)c1ccc(-c2ccnc(Nc3ccc(N4CCOCC4)cc3)n2)cc1 assigned_label="bin 3"

---

Tested on: U2OS
Experiment: Multiplex assay against U2OS
Assay type: toxicity, cell-based
Conditions: human, 12 h, 1 µM, compound concentration 1 uM, replicate 1
Population Mitochondria Different-Phenotype (%): recorded values
Measured parameter: Population Mitochondria Different-Phenotype (%)

structure=Oc1cccc(-c2nc(N3CCOCC3)c3oc4ncccc4c3n2)c1 readout_unit=% measurement=7
structure=CCCCN(CC)c1nc(C)nc2c1c(C)cn2-c1c(C)cc(C)cc1C.Cl readout_unit=% measurement=7
structure=Cc1ccc(NC(=O)Nc2cc(C(F)(F)F)ccc2F)cc1Nc1ccc2c(c1)NC(=O)/C2=C\c1ccc[nH]1 readout_unit=% measurement=7

---

Test system: HEK-293T
Assay: Multiplex assay against HEK293T
Format: toxicity, cell-based
Details: human, 12 h, 10 µM, compound concentration 10 uM, replicate 2
Measured parameter: Population Apoptotic (%)

compound="CC[C@@H]1C(=O)N(C)c2cnc(Nc3ccc(C(=O)NC4CCN(C)CC4)cc3OC)nc2N1C1CCCC1 [BI-2536]" measured_parameter="Population Apoptotic (%)" measurement=12
compound=CN(c1cc(C(F)(F)F)nc(OCCC(=O)O)n1)c1cccc2c1CCC2 measured_parameter="Population Apoptotic (%)" measurement=8
compound="Cl.Cn1c2c(c3ccc(Cl)c(Cl)c31)C(C#N)C1(CCNCC1)NC2=O (centres undefined)" measured_parameter="Population Apoptotic (%)" measurement=17
compound="CN1C(=O)[C@@H](NC(=O)c2cc3ccccc3[nH]2)N=C(c2ccccc2)c2ccccc21 [DEVAZEPIDE]" measured_parameter="Population Apoptotic (%)" measurement=25

---

System: HEK-293T
Experiment: Multiplex assay against HEK293T
Assay type: toxicity, cell-based
Settings: human, 24 h, 10 µM, compound concentration 10 uM, replicate 1
# key: entry, value: Population Hoechst High Intensity Objects (%)
Measured parameter: Population Hoechst High Intensity Objects (%)

compound="CS(=O)(=O)N1CCCC(NC(=O)[C@H](CCC2CCCCC2)NC(=O)c2ccc(CNC(=O)c3cnc4ccccn34)cc2)C1 (some centres not stated)" measurement="17% [middle of 4 runs]"
compound=CCOc1ccn(-c2ccc(F)cc2)c(=O)c1C(=O)Nc1ccc(Oc2ccnc(N)c2Cl)c(F)c1 measurement=13%
compound=Cc1ccc(NC(=O)Nc2cc(C(F)(F)F)ccc2F)cc1Nc1ccc2c(c1)NC(=O)/C2=C\c1ccc[nH]1 measurement=2%
compound=CC(C)C[C@H](NC(=O)[C@H](Cc1ccccc1)NC(=O)CNC(=O)CNC(=O)[C@@H](N)Cc1ccc(O)cc1)C(=O)O measurement=14%
compound=CC(C)[C@H](CO)Nc1nc(Nc2cccc(Cl)c2)c2ncn(C(C)C)c2n1 measurement=12%
compound="CN1C(=O)[C@@H](NC(=O)c2cc3ccccc3[nH]2)N=C(c2ccccc2)c2ccccc21 [DEVAZEPIDE]" measurement=17%
compound="Cl.Cn1c2c(c3ccc(Cl)c(Cl)c31)C(C#N)C1(CCNCC1)NC2=O (configuration not stated)" measurement=19%

---

Tested on: Fibroblast
Assay: Multiplex assay against human fibroblast
Assay type: toxicity, cell-based
Conditions: 12 h, 10 µM, compound concentration 10 uM, replicate 2
Listing of recorded Total Cell Count by entry.
Measured parameter: Total Cell Count

molecule=Oc1cccc(-c2nc(N3CCOCC3)c3oc4ncccc4c3n2)c1 measured_target=Fibroblast measurement=69
molecule=N#Cc1cccc(C(=O)Nc2cc(-c3ccccc3)nn2-c2ccccc2)c1 measured_target=Fibroblast measurement=72
molecule="CC(Cc1ccc(O)c(O)c1)C(C)Cc1ccc(O)c(O)c1 (stereo not drawn) [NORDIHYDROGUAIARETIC ACID]" measured_target=Fibroblast measurement=70

---

System: HEK-293T
Assay: Multiplex assay against HEK293T
Assay type: toxicity, cell-based
Conditions: human, 24 h, 1 µM, compound concentration 1 uM, replicate 2
Measured parameter: Population Pyknosed Nuclei (%)

molecule="CCCCCNC(=N)N/N=C/c1c[nH]c2ccc(OC)cc12.O=C(O)/C=C\\C(=O)O [TEGASEROD MALEATE]" measured_parameter="Population Pyknosed Nuclei (%)" readout_unit=% measurement=40
molecule=CC[C@H](Nc1ncnc2[nH]cnc12)c1nc2cccc(F)c2c(=O)n1-c1ccccc1 measured_parameter="Population Pyknosed Nuclei (%)" readout_unit=% measurement=4
molecule="CN1C(=O)[C@@H](NC(=O)c2cc3ccccc3[nH]2)N=C(c2ccccc2)c2ccccc21 [DEVAZEPIDE]" measured_parameter="Population Pyknosed Nuclei (%)" readout_unit=% measurement=37
molecule=N#CCNC(=O)c1ccc(-c2ccnc(Nc3ccc(N4CCOCC4)cc3)n2)cc1 measured_parameter="Population Pyknosed Nuclei (%)" readout_unit=% measurement=26
molecule=N#Cc1cccc(C(=O)Nc2cc(-c3ccccc3)nn2-c2ccccc2)c1 measured_parameter="Population Pyknosed Nuclei (%)" readout_unit=% measurement=39
molecule=CC[C@@]1(O)C(=O)OCc2c1cc1n(c2=O)Cc2cc3ccccc3nc2-1 measured_parameter="Population Pyknosed Nuclei (%)" readout_unit=% measurement=0
molecule=CC(/C=C1\SC(=S)N(CCCC(=O)Nc2ccc(C(=O)O)c(O)c2)C1=O)=C\c1ccccc1 measured_parameter="Population Pyknosed Nuclei (%)" readout_unit=% measurement=32
molecule=Cc1c(Nc2ccc(S(=O)(=O)N3CCN(C)CC3)cc2F)nc2ccc(-c3cnn(C4CC4)c3)cn2c1=O measured_parameter="Population Pyknosed Nuclei (%)" readout_unit=% measurement=1
molecule=Cc1ccc(NC(=O)Nc2cc(C(F)(F)F)ccc2F)cc1Nc1ccc2c(c1)NC(=O)/C2=C\c1ccc[nH]1 measured_parameter="Population Pyknosed Nuclei (%)" readout_unit=% measurement=13
molecule=C[C@@H](Oc1cc(-n2cnc3ccc(CN4CCN(C)CC4)cc32)sc1C(N)=O)c1ccccc1C(F)(F)F measured_parameter="Population Pyknosed Nuclei (%)" readout_unit=% measurement=47
molecule=CN(c1cc(C(F)(F)F)nc(OCCC(=O)O)n1)c1cccc2c1CCC2 measured_parameter="Population Pyknosed Nuclei (%)" readout_unit=% measurement=25
